Listed here: items and their measured melting point.

Guide cases for melting point, answers given:
Molecule: O=C(/C=C/c1ccc([N+](=O)[O-])cc1)C1CCCCC1 [Compound 3a]
Reported Metric: melting point
Endpoint Result: 132 to 134 °C

Molecule: CC(C)(C)C(=O)/C=C/c1ccc(Cl)c(F)c1 [Compound 17]
Reported Metric: melting point
Endpoint Result: 98.5 to 99.2 °C

Molecule: COc1cccc(C(=O)/C=C/c2ccc([N+](=O)[O-])cc2)c1 [Compound 6a]
Reported Metric: melting point
Endpoint Result: 132.3 to 133.3 °C

Molecule: Cc1ccc(/C=C/C(=O)C(C)(C)C)cc1 [Compound 10]
Reported Metric: melting point
Endpoint Result: 79 to 80 °C

In the following, a different molecule is considered.
Problem: Return the recorded melting point value; entry: Cc1ccc(/C=C/C(=O)C(C)(C)C)cc1F [Compound 18]
Result: 70 to 71 °C

* * *

# melting point per entry

Please review the entries below; each comes with its answer.
Compound: COc1cccc(C(=O)/C=C/c2cc(F)cc(F)c2)c1 [Compound 24a]
Reported Metric: melting point
Endpoint Result: 95.2 to 97.2 °C

Compound: O=C(/C=C/c1ccc([N+](=O)[O-])cc1)c1ccc2c(c1)OCO2
Reported Metric: melting point
Endpoint Result: 182.4 °C

Problem: Give a short answer stating reported melting point for "Cc1ccccc1C(=O)/C=C/c1ccc([N+](=O)[O-])cc1" .
Result: 128 to 129 °C

Problem: // Input: "O=C(/C=C/c1ccc([N+](=O)[O-])cc1)C1CC1" . Output its melting point only.
Result: 118.9 to 120 °C

Problem: State its melting point: COc1ccc(C(=O)/C=C/c2cc(F)cc(F)c2)cc1 [Compound 25a]
Result: 154.3 to 155 °C

Problem: Answer with the recorded melting point for the compound listed here: "COc1ccc(C(=O)/C=C/c2ccc([N+](=O)[O-])cc2)cc1OC"
Result: 189 to 191 °C

Problem: Dear colleague, please send me the reported melting point for "CC(C)(C)C(=O)/C=C/c1ccc(Cl)c(Cl)c1" when you can.
Result: 94 to 96 °C

Problem: Using known records, supply melting point for "CC(C)(C)Oc1ccc(/C=C/C(=O)c2ccco2)cc1"
Result: 132.8 to 134.8 °C

Problem: Specify measured melting point for "CCOc1ccccc1C(=O)/C=C/c1ccc(-c2ccccc2)cc1" .
Result: 98 to 99 °C

Problem: Give melting point for "CC(C)(C)C(=O)/C=C/c1ccc2ccccc2c1"
Result: 117 to 119 °C

Problem: Respond only with melting point recorded for "CC(C)(C)C(=O)/C=C/c1ccc(-c2ccccc2)cc1"
Result: 128 to 130 °C

Problem: Fill in reported melting point for this entry: COc1ccccc1C(=O)/C=C/c1ccccc1Cl [Compound 17a]
Result: 60 to 62 °C

Problem: Write down melting point measured for item COc1ccc(C(=O)/C=C/c2cc(F)cc(F)c2)cc1OC [Compound 26a]
Result: 132.8 to 134.8 °C

Problem: Indicate the recorded melting point value for this compound: COc1ccccc1C(=O)/C=C/c1cccc(Cl)c1 [Compound 21a]
Result: 96 to 98 °C

Problem: Quickly give me recorded melting point for "COc1ccc(/C=C/C(=O)C(C)(C)C)cc1F"
Result: 84.6 °C

Problem: Name the recorded melting point of the compound listed here: "CCOc1ccccc1C(=O)/C=C/c1ccccc1C(F)(F)F"
Result: 70.5 to 71.5 °C

Problem: Assign melting point to the following record: "COc1ccc(/C=C/C(=O)c2ccccc2C)cc1F"
Result: 69 to 70 °C

Problem: Read the entry "CC1(C(=O)/C=C/c2ccc([N+](=O)[O-])cc2)CC1" and write its reported melting point.
Result: 133.1 °C

Problem: Using the record for "CC(C)(C)C(=O)/C=C/c1ccc(Cl)cc1Cl" , state its measured melting point.
Result: 103 to 104 °C

Problem: Item "COc1ccc(/C=C/C(=O)C(C)(C)C)c(F)c1F" : provide melting point
Result: 128 to 129 °C

Problem: Retrieve melting point measured for "CC(C)(C)C(=O)/C=C/c1ccc(Br)cc1" and print it.
Result: 101 °C

Problem: Quick one: give measured melting point for "O=C(/C=C/c1ccc([N+](=O)[O-])cc1)c1ccccn1"
Result: 153 to 155 °C
